The measured values listed here are drawn from PubChem BioAssay AID1845210.

- Tested on: NCI-H226 complex tumor spheroids, viability
- protocolNotes: Anticancer human tumor NCI-H226 cell line growth inhibition;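 note: spheroids exposed to compound for 7 days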
- conditionDetails: curve of first compound; second compound 30 pM
pIC50: −log10 of the molar value.
Parameter pIC50: see the listing below.
measuredAttribute: pIC50

molecule	limitOperator	numericReadout
CC(C)n1c(=O)n(C)c2cnc3cc(F)c(-c4ccc(OCCCN5CCCCC5)nc4)cc3c21 + COc1cc2c(cc1O)CCNC21CSC2c3c(OC(C)=O)c(C)c4c(c3C(COC1=O)N1C(O)C3Cc5cc(C)c(OC)c(O)c5C(C21)N3C)OCO4	=	5.01
COc1cc(C)[nH]c(=O)c1CN1CCc2c(Cl)cc(C(OC)C3COC3)c(Cl)c2C1=O (stereo unspecified) + COc1cc2c(cc1O)CCNC21CSC2c3c(OC(C)=O)c(C)c4c(c3C(COC1=O)N1C(O)C3Cc5cc(C)c(OC)c(O)c5C(C21)N3C)OCO4	<	5.00
Cn1ncnc1[C@H]1c2n[nH]c(=O)c3cc(F)cc(c23)N[C@@H]1c1ccc(F)cc1 + COc1cc2c(cc1O)CCNC21CSC2c3c(OC(C)=O)c(C)c4c(c3C(COC1=O)N1C(O)C3Cc5cc(C)c(OC)c(O)c5C(C21)N3C)OCO4	<	5.52
O=C(c1cc(Cc2n[nH]c(=O)c3ccccc23)ccc1F)N1CCN(C(=O)C2CC2)CC1 + COc1cc2c(cc1O)CCNC21CSC2c3c(OC(C)=O)c(C)c4c(c3C(COC1=O)N1C(O)C3Cc5cc(C)c(OC)c(O)c5C(C21)N3C)OCO4	<	4.52
CC1COCCN1c1cc(-c2ccnn2C)c2ccnc(-c3ccn[nH]3)c2n1 (stereo unspecified) + COc1cc2c(cc1O)CCNC21CSC2c3c(OC(C)=O)c(C)c4c(c3C(COC1=O)N1C(O)C3Cc5cc(C)c(OC)c(O)c5C(C21)N3C)OCO4	=	5.51
COc1ccc([C@@H](O)c2cc(-c3ncnc4cc(N5CCOCC5)ccc34)c(F)cc2Cl)nn1 + COc1cc2c(cc1O)CCNC21CSC2c3c(OC(C)=O)c(C)c4c(c3C(COC1=O)N1C(O)C3Cc5cc(C)c(OC)c(O)c5C(C21)N3C)OCO4	=	5.20

====

- Test system: NCI-H226 complex tumor spheroids, viability
- protocolNotes: Anticancer human tumor NCI-H226 cell line growth inhibition;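 note: spheroids exposed to compound for 7 days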;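 for viability, T/C: 100% = DMSO vehicle control viability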
- conditionDetails: second compound 94.9 pM; first compound 0.3 µM; stronger effect = lower value
Parameter viability, T/C: see the listing below.

compound	viability, T/C
Cc1sc2c(c1C)C(c1ccc(Cl)cc1)=NC(CC(=O)Nc1ccc(O)cc1)c1nnc(C)n1-2 (centres undefined) + COc1cc2c(cc1O)CCNC21CSC2c3c(OC(C)=O)c(C)c4c(c3C(COC1=O)N1C(O)C3Cc5cc(C)c(OC)c(O)c5C(C21)N3C)OCO4	77.6%
O=C(c1cc(Cc2n[nH]c(=O)c3ccccc23)ccc1F)N1CCN(C(=O)C2CC2)CC1 + COc1cc2c(cc1O)CCNC21CSC2c3c(OC(C)=O)c(C)c4c(c3C(COC1=O)N1C(O)C3Cc5cc(C)c(OC)c(O)c5C(C21)N3C)OCO4	95%
CNCc1ccc(-c2cc(-c3nc(-c4ccc(S(=O)(=O)C(C)C)cc4)cnc3N)on2)cc1 + COc1cc2c(cc1O)CCNC21CSC2c3c(OC(C)=O)c(C)c4c(c3C(COC1=O)N1C(O)C3Cc5cc(C)c(OC)c(O)c5C(C21)N3C)OCO4	127%
Cn1ncnc1[C@H]1c2n[nH]c(=O)c3cc(F)cc(c23)N[C@@H]1c1ccc(F)cc1 + COc1cc2c(cc1O)CCNC21CSC2c3c(OC(C)=O)c(C)c4c(c3C(COC1=O)N1C(O)C3Cc5cc(C)c(OC)c(O)c5C(C21)N3C)OCO4	102%
